List of pIC50 values.
# test-target: HBO-KAT7 (Homo sapiens)
# Construct: encoding amino acid residues 325 to 611 (Uniprot 095251-1) of human KAT7; made in house; host or cells: E. coli BL21 DE3 RIL
# Sequence (O95251 with tags, fused parts or gaps): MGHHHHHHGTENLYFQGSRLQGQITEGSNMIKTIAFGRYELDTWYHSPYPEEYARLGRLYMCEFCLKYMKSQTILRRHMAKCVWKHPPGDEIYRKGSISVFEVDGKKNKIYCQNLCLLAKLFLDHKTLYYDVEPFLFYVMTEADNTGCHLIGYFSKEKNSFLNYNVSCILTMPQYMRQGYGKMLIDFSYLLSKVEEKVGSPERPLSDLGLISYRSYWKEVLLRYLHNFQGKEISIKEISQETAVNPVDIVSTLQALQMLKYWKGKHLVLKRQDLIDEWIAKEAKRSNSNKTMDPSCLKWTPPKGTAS
# procedure-summary: Revised Acetyltransferase Biochemical Assay, KAT7
# experimental-conditions: Table 9 (HBO-KAT7), 1 μM Acetyl coenzyme A
Remember, pIC50 is on a log scale: it is -log10 of the molar concentration.

Some molecules with known pIC50 results, for comparison:
[
  {
    "molecule": "O=C(NCC(c1ccccc1)c1ncco1)C1=Nc2ccc(-c3nccs3)cc2S(=O)(=O)N1 (centres unmarked) [Example 134]",
    "meas-value": 6.14
  },
  {
    "molecule": "O=C(NCC(c1ccccc1)c1n[nH]c(=O)o1)C1=Nc2ccc(I)cc2S(=O)(=O)N1 (centres unmarked) [Example 186]",
    "meas-value": 5.71
  },
  {
    "molecule": "O=C(NCC(c1ncco1)c1ccccc1CO)C1=Nc2ccccc2S(=O)(=O)N1 (centres unmarked) [Example 157]",
    "meas-value": 4.65
  },
  {
    "molecule": "O=C(NCCc1ccccc1)C1=Nc2ccc(Br)cc2S(=O)(=O)N1 [Example 78]",
    "meas-value": 5.45
  },
  {
    "molecule": "COCc1cnn(-c2ccccc2CCNC(=O)C2=Nc3ccc(I)cc3S(=O)(=O)N2)n1 [Example 239]",
    "meas-value": 6.16
  },
  {
    "molecule": "O=C(NCC(c1cccc(OCC2CC2)c1)c1ncco1)C1=Nc2ccc(I)cc2S(=O)(=O)N1 (centres unmarked) [Example 217]",
    "meas-value": 5.92
  }
]

I would be grateful if you could share the reported pIC50 for O=C(NCCc1ccccc1-n1ncc(CO)n1)C1=Nc2ccc(I)cc2S(=O)(=O)N1 [Example 190] . 6.38

I would be grateful if you could share the reported pIC50 for O=C(NCC(c1ccccc1)c1ncco1)C1=Nc2ccc(Cl)cc2S(=O)(=O)N1 (centres unmarked) [Example 182] . 6.63

---

# test-target: QKF-KAT6B (Homo sapiens, UniProt Q8WYB5)
# Construct: purchased SignalChem K315-381BG
# Sequence (Q8WYB5 whole entry): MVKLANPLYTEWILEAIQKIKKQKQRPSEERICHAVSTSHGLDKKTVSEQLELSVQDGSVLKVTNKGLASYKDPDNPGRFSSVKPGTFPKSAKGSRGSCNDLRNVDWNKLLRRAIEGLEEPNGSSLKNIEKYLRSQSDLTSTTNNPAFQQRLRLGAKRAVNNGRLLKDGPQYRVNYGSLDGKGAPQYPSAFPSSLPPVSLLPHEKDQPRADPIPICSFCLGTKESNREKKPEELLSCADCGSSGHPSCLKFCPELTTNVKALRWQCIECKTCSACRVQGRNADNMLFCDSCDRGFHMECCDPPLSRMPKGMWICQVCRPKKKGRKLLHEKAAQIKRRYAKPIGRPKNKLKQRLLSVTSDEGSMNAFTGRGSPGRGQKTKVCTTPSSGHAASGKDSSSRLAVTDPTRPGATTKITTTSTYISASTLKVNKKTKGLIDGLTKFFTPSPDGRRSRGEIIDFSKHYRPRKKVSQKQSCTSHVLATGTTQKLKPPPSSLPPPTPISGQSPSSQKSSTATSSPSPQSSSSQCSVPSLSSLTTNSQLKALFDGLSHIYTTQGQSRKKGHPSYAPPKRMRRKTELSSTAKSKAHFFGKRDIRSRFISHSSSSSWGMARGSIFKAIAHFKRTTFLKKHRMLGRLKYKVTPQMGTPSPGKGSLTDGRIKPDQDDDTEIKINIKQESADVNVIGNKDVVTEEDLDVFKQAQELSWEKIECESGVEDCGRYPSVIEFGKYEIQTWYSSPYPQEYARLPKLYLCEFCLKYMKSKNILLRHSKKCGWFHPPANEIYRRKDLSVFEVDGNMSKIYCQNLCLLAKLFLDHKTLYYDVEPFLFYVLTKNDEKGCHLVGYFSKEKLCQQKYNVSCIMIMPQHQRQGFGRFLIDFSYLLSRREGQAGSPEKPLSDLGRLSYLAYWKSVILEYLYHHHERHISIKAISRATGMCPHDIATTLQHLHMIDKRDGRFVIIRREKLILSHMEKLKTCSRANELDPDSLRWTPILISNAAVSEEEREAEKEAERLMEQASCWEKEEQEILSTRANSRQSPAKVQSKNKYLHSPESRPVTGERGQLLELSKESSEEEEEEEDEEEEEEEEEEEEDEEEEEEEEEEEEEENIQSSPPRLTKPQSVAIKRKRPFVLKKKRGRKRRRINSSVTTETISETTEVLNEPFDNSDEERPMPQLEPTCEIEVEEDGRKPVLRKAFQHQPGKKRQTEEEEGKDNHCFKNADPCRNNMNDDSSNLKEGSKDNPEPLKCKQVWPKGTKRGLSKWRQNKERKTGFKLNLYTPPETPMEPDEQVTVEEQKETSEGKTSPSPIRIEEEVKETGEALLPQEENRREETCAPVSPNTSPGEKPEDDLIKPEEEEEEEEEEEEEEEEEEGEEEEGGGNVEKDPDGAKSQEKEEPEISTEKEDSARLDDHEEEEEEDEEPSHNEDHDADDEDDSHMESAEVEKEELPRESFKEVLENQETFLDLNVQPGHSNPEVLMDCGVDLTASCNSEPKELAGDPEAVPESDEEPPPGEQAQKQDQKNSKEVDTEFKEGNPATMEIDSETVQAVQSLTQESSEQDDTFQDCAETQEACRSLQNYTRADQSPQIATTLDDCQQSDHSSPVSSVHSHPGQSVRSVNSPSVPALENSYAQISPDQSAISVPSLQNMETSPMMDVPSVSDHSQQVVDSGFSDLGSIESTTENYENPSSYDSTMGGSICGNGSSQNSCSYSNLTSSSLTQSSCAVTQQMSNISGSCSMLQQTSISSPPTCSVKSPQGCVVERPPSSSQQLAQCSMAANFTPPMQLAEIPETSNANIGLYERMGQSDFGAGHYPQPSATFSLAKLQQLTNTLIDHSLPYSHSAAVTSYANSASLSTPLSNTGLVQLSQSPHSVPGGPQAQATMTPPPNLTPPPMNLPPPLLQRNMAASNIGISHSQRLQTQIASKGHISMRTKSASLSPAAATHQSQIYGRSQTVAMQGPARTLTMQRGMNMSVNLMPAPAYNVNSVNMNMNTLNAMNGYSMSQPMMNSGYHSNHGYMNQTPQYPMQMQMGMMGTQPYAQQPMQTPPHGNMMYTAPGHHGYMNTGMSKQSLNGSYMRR
# procedure-summary: Revised Acetyltransferase Biochemical Assay, KAT6B
# experimental-conditions: 8 nM KAT6B, 1 μM AcCoA, 100 nM histone H3.1, 90 min
quantity-name: IC50

Some molecules with known IC50 results, for comparison:
[
  {
    "molecule": "COc1cc(C)cc(C(CNC(=O)C2=Nc3ccc(I)cc3S(=O)(=O)N2)c2ncco2)c1 (stereo not drawn) [Example 196]",
    "meas-value": "991 nM"
  },
  {
    "molecule": "O=C(NCC(c1ccccc1)c1nccs1)C1=Nc2ccc(I)cc2S(=O)(=O)N1 (stereo not drawn) [Example 167]",
    "meas-value": "27 nM"
  },
  {
    "molecule": "O=C(NCC(c1ccccc1)c1nccs1)C1=Nc2ccc(Cl)cc2S(=O)(=O)N1 (stereo not drawn) [Example 166]",
    "meas-value": "72 nM"
  },
  {
    "molecule": "O=C(NCC(c1ccccc1)c1ncco1)C1=Nc2ccc(Cl)cc2S(=O)(=O)N1 (stereo not drawn) [Example 182]",
    "meas-value": "59 nM"
  },
  {
    "molecule": "O=C(NCC(c1ccccc1)c1ncco1)C1=Nc2ccc(I)cc2S(=O)(=O)N1 (stereo not drawn) [Example 41]",
    "meas-value": "28 nM"
  }
]

Please examine the following record next.
I would be grateful if you could share the reported IC50 for O=C(NCC(c1ccccc1)c1ncco1)C1=Nc2ccc(Br)cc2S(=O)(=O)N1 (stereo not drawn) [Example 1] . 60 nM

---

# test-target: MOZ-KAT6A (Homo sapiens, UniProt Q92794, A567V)
# Construct: encoding amino acid residues 507 to 778 (Uniprot Q92794-1) of human KAT6A; made in house; host or cells: E. coli BL21 DE3
# Sequence (Q92794 507-778 A567V limits assumed): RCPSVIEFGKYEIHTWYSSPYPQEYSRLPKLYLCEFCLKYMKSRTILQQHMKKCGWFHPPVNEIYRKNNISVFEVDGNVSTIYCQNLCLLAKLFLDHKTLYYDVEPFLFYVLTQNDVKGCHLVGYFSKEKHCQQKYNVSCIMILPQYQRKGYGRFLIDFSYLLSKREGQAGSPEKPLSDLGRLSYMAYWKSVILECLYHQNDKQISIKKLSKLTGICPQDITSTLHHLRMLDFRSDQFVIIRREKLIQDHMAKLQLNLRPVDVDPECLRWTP
# procedure-summary: Revised Acetyltransferase Biochemical Assay, KAT6A
# experimental-conditions: Table 8 (MOZ-KAT6A), 1 μM Acetyl coenzyme A
Field 'label' (enum: Condition met / Condition not met). Set to Condition met when IC50 is strictly under 30 nM; else Condition not met.

Look over these answered cases.
[
  {
    "compound": "COc1cc(C)cc(C(CNC(=O)C2=Nc3ccc(I)cc3S(=O)(=O)N2)c2ncco2)c1 (stereo not shown) [Example 196]",
    "class": "Condition not met"
  },
  {
    "compound": "O=C(NCC(c1cccc(Cl)c1)c1ncco1)C1=Nc2ccc(Cl)cc2S(=O)(=O)N1 (stereo not shown) [Example 162]",
    "class": "Condition met"
  },
  {
    "compound": "O=C(NCC(c1cccc(Cl)c1)c1ncco1)C1=Nc2ccc(O)cc2S(=O)(=O)N1 (stereo not shown) [Example 224]",
    "class": "Condition not met"
  },
  {
    "compound": "O=C(NCC(CCO)c1ccccc1)C1=Nc2ccccc2S(=O)(=O)N1 (stereo not shown) [Example 3]",
    "class": "Condition not met"
  },
  {
    "compound": "O=C(NCCc1ccccc1C(F)(F)F)C1=Nc2ccc(I)cc2S(=O)(=O)N1 [Example 118]",
    "class": "Condition not met"
  },
  {
    "compound": "O=C(NCCc1ccccc1-n1ncc(CO)n1)C1=Nc2ccc(I)cc2S(=O)(=O)N1 [Example 190]",
    "class": "Condition met"
  }
]

In plain terms, does COCc1cnn(-c2ccccc2CCNC(=O)C2=Nc3ccc(I)cc3S(=O)(=O)N2)n1 [Example 239] come in under 30 nM for IC50? Condition met

---

# test-target: MOF-KAT8 (Homo sapiens, UniProt Q9H7Z6)
# Sequence (Q9H7Z6 177-447): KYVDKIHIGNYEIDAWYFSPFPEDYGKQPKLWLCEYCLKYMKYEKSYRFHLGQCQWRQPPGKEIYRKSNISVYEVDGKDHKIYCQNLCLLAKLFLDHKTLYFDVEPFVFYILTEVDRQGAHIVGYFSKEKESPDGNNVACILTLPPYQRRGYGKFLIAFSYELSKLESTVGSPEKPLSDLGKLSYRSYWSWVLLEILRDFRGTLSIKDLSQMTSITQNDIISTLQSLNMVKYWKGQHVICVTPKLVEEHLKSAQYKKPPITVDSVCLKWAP
# procedure-summary: Revised Acetyltransferase Biochemical Assay, KAT8
quantity-name: pIC50
Remember, pIC50 is on a log scale: it is -log10 of the molar concentration.

[
  {
    "compound": "O=C(NCCc1ccccc1-c1n[nH]c(=O)o1)C1=Nc2ccc(I)cc2S(=O)(=O)N1 [Example 172]",
    "meas-value": 5.21
  }
]

I would be grateful if you could share the reported pIC50 for COC(=O)c1ccc2c(c1)S(=O)(=O)NC(C(=O)NCC(c1ccccc1)c1ccccc1)=N2 [Example 20] . 4.20

I would be grateful if you could share the reported pIC50 for O=C(NCC(c1ccccc1)c1ncco1)C1=Nc2ccc(-c3cn[nH]c3)cc2S(=O)(=O)N1 (stereo not shown) [Example 26] . 4.40

I would be grateful if you could share the reported pIC50 for O=C(NCCc1ccccc1-n1cccn1)C1=Nc2ccc(I)cc2S(=O)(=O)N1 [Example 240] . 4.20

I would be grateful if you could share the reported pIC50 for O=C(NCC(c1ccccc1)c1ccccc1)C1=Nc2ccccc2S(=O)(=O)N1 [Example 68] . 4.78

---

# test-target: MOZ-KAT6A (Homo sapiens, UniProt Q92794, A567V)
# Construct: encoding amino acid residues 507 to 778 (Uniprot Q92794-1) of human KAT6A; made in house; host or cells: E. coli BL21 DE3
# procedure-summary: Revised Acetyltransferase Biochemical Assay, KAT6A
# experimental-conditions: Table 8 (MOZ-KAT6A), 1 μM Acetyl coenzyme A
quantity-name: pIC50
Remember, pIC50 is on a log scale: it is -log10 of the molar concentration.

Some compounds with known pIC50 results, for comparison:
[
  {
    "compound": "O=C(NCC(c1cccc(O)c1)c1ncco1)C1=Nc2ccc(Cl)cc2S(=O)(=O)N1 (stereo not drawn) [Example 216]",
    "pIC50": 7.55
  },
  {
    "compound": "CC(=O)NC(C)c1ccc2c(c1)S(=O)(=O)NC(C(=O)NCC(c1ccccc1)c1ncco1)=N2 (stereo not drawn) [Example 211]",
    "pIC50": 5.66
  }
]

Please examine the following record next.
I would be grateful if you could share the reported pIC50 for O=C(NCC(c1ccccc1)c1ncco1)C1=Nc2ccc(Cl)cc2S(=O)(=O)N1 (stereo not drawn) [Example 182] . 8.22

---

# test-target: TIP60-KAT5 (Homo sapiens)
# Construct: encoding amino acid residues 2 to 461 (Uniprot Q92993-2) of human KAT5 isoform; made in house; host or cells: E. coli BL21 DE3
# Sequence (Q92993 2-461 isoform Q92993-2): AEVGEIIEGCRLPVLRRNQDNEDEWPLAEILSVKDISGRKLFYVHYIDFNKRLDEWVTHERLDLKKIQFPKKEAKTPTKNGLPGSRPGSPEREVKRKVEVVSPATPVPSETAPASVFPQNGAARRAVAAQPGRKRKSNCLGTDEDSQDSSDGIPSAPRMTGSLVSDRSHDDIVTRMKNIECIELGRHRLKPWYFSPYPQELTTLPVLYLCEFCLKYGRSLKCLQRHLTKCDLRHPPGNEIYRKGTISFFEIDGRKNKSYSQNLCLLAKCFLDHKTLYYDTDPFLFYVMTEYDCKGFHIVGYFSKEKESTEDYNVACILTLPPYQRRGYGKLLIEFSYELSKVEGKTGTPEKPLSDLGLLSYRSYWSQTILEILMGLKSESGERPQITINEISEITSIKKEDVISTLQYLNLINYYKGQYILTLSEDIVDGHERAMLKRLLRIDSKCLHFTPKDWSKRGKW
# procedure-summary: Acetyltransferase biochemical assay (AlphaScreen), KAT5
# experimental-conditions: Table 1 (TIP60-KAT5); 0.4 μM Acetyl coenzyme A, histone H4, 10 nM enzyme
quantity-name: IC50 (nM)
I only need the number, in nM, no unit after it.

Some compounds with known IC50 results, for comparison:
[
  {
    "compound": "O=C(NCCc1ccccc1OC(F)(F)F)C1=Nc2ccc(I)cc2S(=O)(=O)N1",
    "units-symbol": "nM",
    "IC50": 367
  },
  {
    "compound": "O=C(NCC(c1ccccc1)c1ncco1)C1=Nc2ccc(I)cc2S(=O)(=O)N1 (stereo not drawn) [Example 41]",
    "units-symbol": "nM",
    "IC50": 61.3
  }
]

Please state recorded IC50 (tested on TIP60-KAT5 (Homo sapiens)) of NC(=O)c1ccc2c(c1)S(=O)(=O)NC(C(=O)NCC(c1ccccc1)c1ncco1)=N2 (stereo not drawn) 1290
